- System: A549 NSCLC
- PROCEDURE TEXT: NCI tumour cell line growth inhibition, 48 h
VALUE KIND: TGI

COMPOUND	TESTED SYSTEM	VALUE KIND	REPORTED VALUE
CN(C)CCN(C(=Nc1ccccc1)N1CCCC1)c1ccccc1	A549 NSCLC	TGI	> 100 µM

// TGI lookup, key: `S=C1N=C(Cl)/C(=C\c2ccccc2)N1` > 100 µM

I would be grateful if you could share the reported TGI for `COc1cc(C(=O)Nc2cc(C(N)=O)cc(OC)c2OC)cc(NC(=O)/C=C/c2ccccc2)c1OC` . > 100 µM

Tell me the measured TGI of CC#CC(O)(C(=O)OC1CC2CCC(C1)N2C)C1CCCC1 (configuration not stated) , please. > 100 µM

Report TGI for Cc1ccc(S(=O)(=O)NNC2Oc3cc4c(cc3C(c3ccccc3O)C2C)OCO4)cc1 (configuration not stated) please. 26.8 µM
